# measured target: human α4β7 integrin (human) (UniProt P13612)
# protocol text: inhibition of HUT 78 cell adhesion to murine MAdCAM-1/mCk at 500 µM
Ends that are not written are not given here. * marks the point of attachment. Phenylacetyl(4-Ph) = O=C(Cc1ccc(-c2ccccc2)cc1)*; Acetyl(1-naphthyl) = O=C(Cc1cccc2ccccc12)*; Ibuprofenoyl = CC(C)Cc1ccc(C(C)C(=O)*)cc1; Hexanoyl(6-Ph) = O=C(CCCCCc1ccccc1)*
value kind: % Adhesion Inhibition

These solved cases illustrate the format of a correct answer.
{"binder": "{Phenylacetyl(4-Ph)}-LDTSL (not fully specified (C-terminus); printed as Bipa-Leu-Asp-Thr-Ser-Leu) [Bipa-Leu-Asp-Thr-Ser-Leu]", "% Adhesion Inhibition": "54%"}
{"binder": "Ibuprofenoyl-LDTSL (not fully specified (C-terminus); printed as Impa-Leu-Asp-Thr-Ser-Leu) [Impa-Leu-Asp-Thr-Ser-Leu]", "% Adhesion Inhibition": "44%"}
{"binder": "{Acetyl(1-naphthyl)}-LDTSL (not fully specified (C-terminus); printed as Npa-Leu-Asp-Thr-Ser-Leu) [Npa-Leu-Asp-Thr-Ser-Leu]", "% Adhesion Inhibition": "39%"}
{"binder": "{Hexanoyl(6-Ph)}-LDTSL (not fully specified (C-terminus); printed as Phx-Leu-Asp-Thr-Ser-Leu) [Phx-Leu-Asp-Thr-Ser-Leu]", "% Adhesion Inhibition": "32%"}

Please find the next binder below.
For the binder shown here, Ac-LDTSL (not fully specified (C-terminus); printed as Ac-Leu-Asp-Thr-Ser-Leu) [Ac-Leu-Asp-Thr-Ser-Leu (00389-1A)] , give the reported % Adhesion Inhibition. 29%
